# assayed_system: His6-AspH315–758 (human aspartate/asparagine-β-hydroxylase, AspH) (Homo sapiens)
# Construct: N-Terminally His6-tagged human AspH315–758 (His6-AspH315–758) was produced in E. coli BL21 (DE3) cells; made in house; host or cells: E. coli BL21 (DE3), pET-28a(+) vector
# experimental_protocol: SPE-MS AspH inhibition assay (LOPAC screen at fixed 20 μM and IC50 dose-response), hydroxylation of cyclic peptide hFX-CP101–119
# Type: biochemical
# condition_notes: LOPAC compound at 20uM, plate 3; conversion of substrate peptide
Counter-ions that a name gives are not always drawn.
quantity: Plate 3 (% conversion) (%)

| molecule | quantity | reading |
| --- | --- | --- |
| CCOC(=O)C1=C(C)NC(C)=C(C(=O)OC)C1c1cccc([N+](=O)[O-])c1 (stereo not drawn) [Nitrendipine] | Plate 3 (% conversion) | 38.78 |
| NC(CO)(CO)CO.O=C(c1ccccc1)c1ccc2n1CCC2C(=O)O (stereo not drawn) [Ketorolac tris salt] | Plate 3 (% conversion) | 36.01 |
| CN1C[C@H](CNC(=O)OCc2ccccc2)C[C@@H]2c3cccc4c3c(cn4C)C[C@H]21 [Metergoline] | Plate 3 (% conversion) | 47.43 |
| O=c1onc2n1-c1cc(Br)ccc1OC2 [NS 2028] | Plate 3 (% conversion) | 35.06 |
| CC(C)[C@H]1c2ccc(F)cc2CC[C@@]1(CCN(C)CCCc1nc2ccccc2[nH]1)OC(=O)C1CC1 [NNC 55-0396] | Plate 3 (% conversion) | 58.37 |
| NS(=O)(=O)c1ccc(-n2nc(C(F)(F)F)cc2-c2ccc(Cl)cc2)cc1 [SC-236] | Plate 3 (% conversion) | 40.00 |
| Cc1[nH]c(=O)c(C#N)cc1-c1ccncc1 [Milrinone] | Plate 3 (% conversion) | 40.58 |
| C[C@@]1(C2CCCC2)Cc2cc(OCC(=O)O)c(Cl)c(Cl)c2C1=O [R(+)-IAA-94] | Plate 3 (% conversion) | 30.54 |
| CCc1c(C)[nH]c2c1C(=O)C(CN1CCOCC1)CC2 (stereo not drawn) [Molindone hydrochloride] | Plate 3 (% conversion) | 42.00 |

====

# assayed_system: His6-AspH315–758 (human aspartate/asparagine-β-hydroxylase, AspH) (Homo sapiens, UniProt Q12797)
# Construct: N-Terminally His6-tagged human AspH315–758 (His6-AspH315–758) was produced in E. coli BL21 (DE3) cells; made in house; host or cells: E. coli BL21 (DE3), pET-28a(+) vector
# Sequence (Q12797 315-758): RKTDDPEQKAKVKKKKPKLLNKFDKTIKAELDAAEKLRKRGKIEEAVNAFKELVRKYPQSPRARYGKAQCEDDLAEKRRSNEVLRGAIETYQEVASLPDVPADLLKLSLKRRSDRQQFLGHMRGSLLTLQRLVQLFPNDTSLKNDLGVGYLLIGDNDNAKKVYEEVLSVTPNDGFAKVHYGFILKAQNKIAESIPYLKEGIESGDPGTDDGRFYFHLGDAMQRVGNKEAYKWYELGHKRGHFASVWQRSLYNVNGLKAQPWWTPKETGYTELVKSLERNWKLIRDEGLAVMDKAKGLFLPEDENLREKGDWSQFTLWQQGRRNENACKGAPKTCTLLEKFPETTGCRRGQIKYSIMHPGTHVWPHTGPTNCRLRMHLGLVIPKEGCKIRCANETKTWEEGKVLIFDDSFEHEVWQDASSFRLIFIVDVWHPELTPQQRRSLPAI
# experimental_protocol: SPE-MS AspH inhibition assay (LOPAC screen at fixed 20 μM and IC50 dose-response), hydroxylation of cyclic peptide hFX-CP101–119
# Format: biochemical

| structure_smiles_string | units_text | Plate 5 (% inhibition) |
| --- | --- | --- |
| CC1(N2CCC(n3c([C@@H]4CCCNC4)nc4ccccc43)CC2)CCCCCCC1 | % | -8.35 |
| COc1ccc(/C=C/c2nc(NCCCN(C)C)c3ccccc3n2)cc1 | % | -26.30 |
| C=C1C[C@@H]2[C@H](CC[C@]3(C)C(=O)CC[C@@H]23)[C@@]2(C)C=CC(=O)C=C12 | % | 2.56 |
| Nc1nc2ccc(Cl)cc2n2c(-c3ccccc3)nnc12 | % | 19.04 |
| CN[C@@H]1CC[C@@H](c2ccc(Br)cc2)c2ccccc21.Cl | % | -4.23 |
